Cited source for all entries: PubChem BioAssay AID624288

ASSAY_METHOD_TEXT: qHTS for Antagonists of gsp, the Etiologic Mutation Responsible for Fibrous Dysplasia/McCune-Albright Syndrome: qHTS; also: nearly all actives have a fitted effect of over 65% in size
CONDITIONS_USED: gsp-mutant cells, cAMP HTRF, 30 min; series mostly up to 76.9 µM
In all, about 340,000 compounds went through this assay and about 1,400 (0.41%) were called active. Another 4% or so got no clear call; they are omitted. Calls follow the shape of the full dose curve; cell line not stated here. The sample as a whole holds a higher share of actives than the screen did.
Hi! Could you answer with just one of these? True = active, False = inactive

Some solved cases for reference:
CC(=O)c1cccc(NC(=S)N2CCCC2)c1    False
CCc1nc(C)cn1S(=O)(=O)c1cc([N+](=O)[O-])ccc1Cl    False
CCc1nc(C)cn1S(=O)(=O)c1cc(OC)c(C)cc1C    True
COc1cc(Cl)c(S(=O)(=O)n2cnc(C)c2)cc1Cl    False
CCC1([N+](=O)[O-])COC(c2ccc(C)cc2)OC1 (stereo unspecified)    False

GET /call?item= CSc1nsc(NC(=O)Nc2ccccc2)n1 returns the recorded outcome of this test.
False

====

ASSAY_METHOD_TEXT: qHTS for Antagonists of gsp, the Etiologic Mutation Responsible for Fibrous Dysplasia/McCune-Albright Syndrome: qHTS; also: nearly all actives have a fitted effect of over 65% in size; also: potency is read from the fitted curve at half-maximal effect
CONDITIONS_USED: gsp-mutant cells, cAMP HTRF, 30 min; series mostly up to 76.9 µM
The campaign covered roughly 340,000 compounds. About 1,400 (0.41%) were called active. Inconclusive results (about 4%) are left out. The entries come from a sample that favours actives as a whole.
RECORDED_METRIC: Potency

Cc1nc2c(C(=O)NCc3ccc4c(c3)OCO4)c[nH]n2c(=O)c1Cc1ccccc1F    28.2 µM (active)
Cc1cccc(CS(=O)(=O)c2ncc(Cl)c(C(=O)Nc3ccc(F)cc3)n2)c1    50.1 µM (active)
CSc1ncc(Cl)c(C(=O)Nc2cc(C)ccc2C)n1    inactive
O=C(c1cccc(F)c1)N1CCN(c2ccc([N+](=O)[O-])c3cccnc23)CC1    39.8 µM (active)

# map each compound to its Potency
1. O=C(c1cccc(F)c1)N1CCN(c2ccc([N+](=O)[O-])c(N3CCCCC3)c2)CC1
2. CN1CCOC1c1ccc(C2OCCN2C)cc1 (stereo not drawn)
3. CNc1nc(=O)n(C2CCCO2)cc1C (stereo not drawn)

1. inactive
2. inactive
3. inactive

# map each compound to its Potency
1. O=C(NCc1ccccc1)c1cccc(NC(=O)C2CCCCC2)c1
2. COc1ccc(N=C2C=CC(=O)O2)cc1
3. Cc1nn(Cc2ccc(F)cc2)c(C)c1NC(=O)c1cccnc1Cl

inactive
inactive
inactive

# map each compound to its Potency
1. CCOc1ccc(NC(=O)c2nc(SCC)ncc2Cl)cc1
2. COc1ccccc1C1/C(=C(/O)c2ccc(OC(C)C)cc2)C(=O)C(=O)N1c1cc(C)on1 (stereo not drawn)
3. CC(=O)OCC(COC(C)=O)OC(C)=O
4. COc1ccc(Cl)cc1C=CC=Nc1ccc(S(N)(=O)=O)cc1
5. Cc1ccc(S(=O)(=O)c2cc3c(=O)n4cccc(C)c4nc3n(CCc3ccccc3)c2=N)cc1C

["inactive", "28.2 µM (active)", "35.5 µM (active)", "inactive", "inactive"]

====

ASSAY_METHOD_TEXT: qHTS for Antagonists of gsp, the Etiologic Mutation Responsible for Fibrous Dysplasia/McCune-Albright Syndrome: qHTS; also: nearly all actives have a fitted effect of over 65% in size
CONDITIONS_USED: gsp-mutant cells, cAMP HTRF, 30 min; series mostly up to 76.9 µM
In all, about 340,000 compounds went through this assay and about 1,400 (0.41%) were called active. Not shown: some 4% with an inconclusive outcome. Calls follow the shape of the full dose curve; cell line not stated here. This excerpt belongs to a sample that is enriched for actives.
Hi! Could you answer with just one of these? t (active), f (inactive)

CC(=O)c1c(C)[nH]c(C(=O)COC(=O)c2cccs2)c1C    f
COC(C[C@H](O)CC(=O)[C@@H](C)OCc1ccccc1)OC    f
Cc1ccc(NC(=O)Nc2nnc(-c3ccncc3)s2)cc1    t
COC(C[C@@H](O)C[C@@H](O)[C@H](C)OCc1ccccc1)OC    f
COc1ccccc1CNC(=O)CCn1c(=O)sc2ccccc21    f
O=C1C[C@@H]2c3c(cccc3CN1Cc1ccccc1)C[C@@H](O)[C@H]2O    f
CC(=O)c1c(C)[nH]c(C(=O)COC(=O)c2cccc(S(=O)(=O)N(C)c3ccccc3)c2)c1C    t
CC(=O)N1CCCc2cc(S(=O)(=O)N3CCCC(C(=O)N4CCN(c5cccc(Cl)c5)CC4)C3)ccc21 (centres undefined)    t

Now turn to the next compound.
GET /call?item= Cc1cccc(CSc2nnc(Cn3c(=O)sc4ccccc43)n2C)c1 returns the recorded outcome of this test.
f

====

ASSAY_METHOD_TEXT: qHTS for Antagonists of gsp, the Etiologic Mutation Responsible for Fibrous Dysplasia/McCune-Albright Syndrome: qHTS; also: nearly all actives have a fitted effect of over 65% in size
CONDITIONS_USED: gsp-mutant cells, cAMP HTRF, 30 min; series mostly up to 76.9 µM
The campaign covered roughly 340,000 compounds. About 1,400 (0.41%) were called active. Roughly 4% stayed inconclusive and do not appear here. Calls follow the shape of the full dose curve; cell line not stated here. The entries come from a sample that favours actives as a whole.
Hi! Could you answer with just one of these? active, inactive

Some solved cases for reference:
CCOc1ccccc1NC(=S)C(=C([O-])c1ccc2c(c1)OCCO2)[n+]1ccc(CC)cc1    inactive
CSc1ncnc2c1ncn2CC(=O)C1CCC2C3CCC4=CC(=O)CCC4(C)C3CCC12C (stereo unspecified)    active
Cc1ccnc(NS(=O)(=O)c2ccc(NC(=O)c3oc4ccc(F)cc4c3C)cc2)n1    active
COc1ccc2oc(N)nc2c1    inactive
COc1ccc(/C=C/C(=O)OCC(=O)N2CCN(S(=O)(=O)c3ccc(C)cc3C)CC2)cc1OC    inactive
CC(=NNC(=S)N1CCCCCC1)c1ccccn1    inactive

GET /call?item= Cc1ccnc(NS(=O)(=O)c2ccc(NC(=O)c3oc4ccccc4c3C)cc2)n1 returns the recorded outcome of this test.
inactive

Entry to check: O=C(O)c1ccc(S(=O)(=O)c2ccccc2)s1
inactive

Entry to check: S=C(Nc1ccccc1)Nc1ccc2ccccc2c1
inactive

Entry to check: COc1ccc(-c2nnc(SCC(=O)Nc3cccnc3Cl)n2C)cc1
inactive

Entry to check: O=C(CSc1nnc(C2CC2)n1Cc1ccccc1)Nc1cccnc1Cl
active

Entry to check: O=C(Nc1c[nH]c(=O)[nH]c1=O)OCc1ccccc1
inactive

Entry to check: CN(C(=O)c1cccc(NC(=O)Cc2ccc(NC(=O)C3CCCN(C(=O)C4CCCC4)C3)cc2)c1)C1CCC1 (stereo unspecified)
inactive

Entry to check: COc1ccc(C(CNC(=O)c2cc(S(=O)(=O)Nc3cccc(C)c3)ccc2C)N2CCCC2)cc1 (stereo unspecified)
inactive

Entry to check: CCOC(=O)[C@H]1[C@H]2COc3ccc(Br)cc3[C@@H]2N2C(=O)CN(C)C(=O)[C@@]12C
inactive

Entry to check: CNN/C(N=Cc1ccc([N+](=O)[O-])s1)=N\S(=O)(=O)c1cc(C)c(Cl)cc1SCc1ccccc1
inactive

Entry to check: CC(=O)C12CC(C)=C(C)CC1CC1C3CCC4=CC(=O)CCC4(C)C3CCC12C (stereo unspecified)
inactive

Entry to check: C=CCn1c(=O)n(C)c2c(=O)n(C)c(=O)n(C)c21
inactive

====

ASSAY_METHOD_TEXT: qHTS for Antagonists of gsp, the Etiologic Mutation Responsible for Fibrous Dysplasia/McCune-Albright Syndrome: qHTS; also: nearly all actives have a fitted effect of over 65% in size
CONDITIONS_USED: gsp-mutant cells, cAMP HTRF, 30 min; series mostly up to 76.9 µM
The campaign covered roughly 340,000 compounds. About 1,400 (0.41%) were called active. About 4% were inconclusive and are not listed. Calls follow the shape of the full dose curve; cell line not stated here. What follows is part of a selection rich in actives, with near analogues and random picks from the rest.
Hi! Could you answer with just one of these? 1.0 = active, 0.0 = inactive

Some solved cases for reference:
COc1cccc(C=CC(=O)C=CC=Cc2ccccc2)c1    0.0
O=[N+]([O-])c1ccccc1/C=N/n1c(COc2ccccc2)n[nH]c1=S    0.0

GET /call?item= CN(C(=O)c1ccc(NC(=O)Cc2cccc(NC(=O)C3CCN(C(=O)c4ccccc4)CC3)c2)cc1)C1CC1 returns the recorded outcome of this test.
0.0

Entry to check: Cc1ccc(/C=C2\SC(=S)N(CCC(=O)Nc3ccc(O)cc3)C2=O)cc1
0.0

Entry to check: CC(Nc1ccc([N+](=O)[O-])cc1[N+](=O)[O-])c1ccccc1 (configuration not stated)
0.0

Entry to check: COc1ccc(-c2onc(C)c2-c2ccc3c(c2)OCCO3)c(O)c1
0.0

Entry to check: COc1ccc(/C=N/Nc2cc(N3CCOCC3)nc(C)n2)c(OC)c1
1.0

Entry to check: Cc1nnc(SCC(=O)Nc2cccc(N)c2)n1-c1ccccc1
0.0

Entry to check: CCN1CCN(Cc2c(O)ccc3c(=O)c(-c4ccc(OC)c(OC)c4)c(C(F)(F)F)oc23)CC1
0.0

Entry to check: O=C1OC(Oc2ccc(Br)cc2)(c2ccccc2)c2ccccc21 (configuration not stated)
0.0

Entry to check: COc1cc(C(=O)CCc2ccc3c(c2)OCO3)cc(OC)c1OC
0.0
